target: OGG1-Y203A (untagged) (human, UniProt O15527 1-345, Y203A); assay: EMSA
Sequence (O15527 whole entry Y203A): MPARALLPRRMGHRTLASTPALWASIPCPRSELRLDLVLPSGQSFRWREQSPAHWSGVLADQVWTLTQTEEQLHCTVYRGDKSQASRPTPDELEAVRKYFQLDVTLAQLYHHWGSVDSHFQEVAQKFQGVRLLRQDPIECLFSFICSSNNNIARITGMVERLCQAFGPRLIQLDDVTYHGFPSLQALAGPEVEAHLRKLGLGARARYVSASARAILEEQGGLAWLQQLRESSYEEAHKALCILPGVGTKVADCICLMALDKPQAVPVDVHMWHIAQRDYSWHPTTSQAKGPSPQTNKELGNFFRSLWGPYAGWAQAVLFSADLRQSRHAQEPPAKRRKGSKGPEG
measure-name: Kd (nM)
Write the answer as a number in nM, unit excluded.

In: Requested read-out: Kd. Entry: 24-mer G:C duplex (dsDNA) DNA 1: CTGATCGATGACGCCTGACATGAT DNA 2: ATCATGTCAGGCGTCATCGATCAG
Out: 1970
